Catalogue of kynurenine production values
System: MDA-MB-231
assay details: kynurenine production, fold change vs DMSO IFNg/TNF control; higher = more kynurenine produced (less inhibition)
experimental parameters: pre-treatment time: 18 h then 24 h IFNg/TNF
// return just the number, without any unit appended

The examples below pair each entry with its known result.
C[C@@]12C[C@@]3(O)O[C@@H](O1)[C@]1(COC(=O)c4ccccc4)[C@H]3C[C@@]12O[C@@H]1O[C@H](CO)[C@@H](O)[C@H](O)[C@H]1O [Paeoniflorin] (compound dose: 10 uM): 1.34
Cc1cc(O)cc(O[C@@H]2O[C@H](CO)[C@@H](O)[C@H](O)[C@H]2O)c1 [Orcinol glucoside] (compound dose: 10 uM): 0.821
CC1OC(OC2C(OC3CCC4(C)C(CCC5(C)C4CC=C4C6CC(C)(C)CCC6(C(=O)OC6OC(COC7OC(CO)C(O)C(O)C7O)C(O)C(O)C6O)CCC45C)C3(C)CO)OCC(O)C2O)C(O)C(O)C1O (centres undefined) [Dipsacoside B] (compound dose: 10 uM): 0.861

We now examine a further molecule.
// C[C@H]1O[C@@H](Oc2ccc(COC(=O)CC(O)(CC(=O)OCc3ccc(O[C@@H]4O[C@H](CO)[C@@H](O)[C@H](O)[C@H]4O)cc3)C(=O)Oc3ccc(O[C@H]4O[C@H](CO)[C@@H](O)[C@H](O)[C@H]4O)cc3)cc2)[C@H](O)[C@@H](O)[C@@H]1O (some centres undefined) [Parishin] (compound dose: 10 uM) : kynurenine production value = 0.792

###

Here, each record is paired with measured kynurenine production data.
System: MDA-MB-231
assay details: kynurenine production, fold change vs DMSO IFNg/TNF control; higher = more kynurenine produced (less inhibition)
experimental parameters: pre-treatment time: 18 h then 24 h IFNg/TNF
Write the number on its own, no unit after it.

Use these answered entries as a reference point.
C/C1=C/CC[C@H](C)C(=O)C[C@@H](C(C)C)C(=O)C1 [Curdione] (compound dose: 10 uM): 1.02
CC(C)(O)[C@H]1CC[C@@](C)([C@H]2[C@@H](O)C[C@@]3(C)[C@@H]4C[C@H](O)[C@H]5C(C)(C)[C@@H](O)CC[C@@]56C[C@@]46CC[C@]23C)O1 [Cyclogalegenin] (compound dose: 10 uM): 0.854
CC(C)=CCC[C@](C)(O[C@@H]1O[C@H](CO)[C@@H](O)[C@H](O)[C@H]1O)[C@H]1CC[C@]2(C)[C@@H]1[C@H](O)C[C@@H]1[C@@]3(C)CC[C@H](O)C(C)(C)[C@@H]3CC[C@]12C [Ginsenoside C-K] (compound dose: 10 uM): 0.912
C=C1C(=O)O[C@H]2C1CC[C@@](C)(O)C13C=CC(C)(C21)C1(C3)C(=O)O[C@@H]2C3C(C)=CCC3[C@](C)(O)[C@H](OC(C)=O)CC21 (stereo not given in full) [Handelin] (compound dose: 10 uM): 0.709

Entry CC(C)=CCC[C@](C)(O)[C@@H]1CC=C(C)CC1 [alpha-Bisabolol] (compound dose: 10 uM) , kynurenine production reported as 0.79

###

The reader will find reported cell viability values listed item by item below.
System: MDA-MB-231
assay details: cell viability relative to vehicle unstimulated control (fraction); higher = more viable cells
experimental parameters: pre-treatment time: 18 h then 24 h IFNg/TNF
Number, no unit, nothing else.

Would you please look over these solved cases?
CC1(C)C[C@@H](O)[C@]2(C)CC[C@]3(C)C(=CC[C@@H]4[C@@]5(C)CC[C@H](O)[C@](C)(CO)[C@@H]5CC[C@]43C)[C@@H]2C1 [Soyasapogenol B] (compound dose: 10 uM): 1.02
CC1=CCC2CC1C2(C)C (stereo not drawn) [(+)-α-pinene] (compound dose: 10 uM): 0.992
Cc1ccc(C(C)C)cc2c(C)ccc1-2 [Guaiazulene] (compound dose: 10 uM): 1.1

Looking up C=C(C)[C@H]1C=C[C@@](C)(O)CC1 [cis-Isolimonenol] (compound dose: 10 uM) , I see its cell viability listed as 0.972

Lab note: measured cell viability of CC(=O)O[C@@H]1C[C@@]23C[C@@]24CC[C@H](O[C@@H]2OC[C@@H](O)[C@H](O)[C@H]2O)C(C)(C)[C@@H]4CC[C@H]3[C@]2(C)C[C@@H]3O[C@]4(C[C@@H](C)[C@@H]3[C@@]12C)OC[C@@]1(C)O[C@@H]41 [26-Deoxyactein] (compound dose: 10 uM) was 0.981

compound CC1=CCC(C(C)C)=CC1 [γ-Terpinene] (compound dose: 10 uM) , cell viability observed: 1.07

Recorded cell viability (compound C=C(C)[C@@H]1CCC2=CC(=O)C[C@@H](C)[C@]2(C)C1 [Nootkatone] (compound dose: 10 uM) ): 0.933

###

Each entry below carries its reported kynurenine production.
System: MDA-MB-231
assay details: kynurenine production, fold change vs DMSO IFNg/TNF control; higher = more kynurenine produced (less inhibition)
experimental parameters: pre-treatment time: 18 h then 24 h IFNg/TNF
Could you keep your reply to the number by itself?

CC(C)=CCC[C@](C)(O[C@@H]1O[C@H](CO)[C@@H](O)[C@H](O)[C@H]1O)[C@H]1CC[C@]2(C)[C@@H]1[C@H](O)C[C@@H]1[C@@]3(C)CC[C@H](O)C(C)(C)[C@@H]3[C@@H](O)C[C@]12C [Ginsenoside F1] (compound dose: 10 uM): 1.13

Entry C=C1[C@H](OC(=O)c2cccnc2)C[C@H]2[C@@H](/C=C(\C)C(=O)[C@@]3(OC(C)=O)C[C@H](C)[C@H](OC(=O)c4ccccc4)[C@@H]3[C@H]1OC(C)=O)C2(C)C [Euphorbia factor L9] (compound dose: 10 uM) , tested on MDA-MB-231, has a reported kynurenine production of 0.226

###

System: MDA-MB-231
assay details: kynurenine production, fold change vs DMSO IFNg/TNF control; higher = more kynurenine produced (less inhibition)
experimental parameters: pre-treatment time: 18 h then 24 h IFNg/TNF
value kind: kynurenine production
// keep it numeric: no unit symbol after the value

# count of solved cases: 2
C[C@@H]1O[C@@H](O[C@H]2[C@H](O[C@H]3CC[C@]4(C)[C@H]5CC=C6[C@@H]7CC(C)(C)CC[C@]7(C(=O)O)CC[C@@]6(C)[C@]5(C)CC[C@H]4C3(C)C)OC[C@H](O[C@@H]3O[C@H](CO)[C@@H](O)[C@H](O)[C@H]3O)[C@@H]2O)[C@H](O)[C@H](O)[C@H]1O [Hederacolchiside A1] (compound dose: 10 uM): 0.396
COc1ccc2c(c1O)C(Cc1ccc(O)cc1)[N+](C)(C)CC2 (stereo not drawn) [Oblongine] (compound dose: 10 uM): 1.03

Now examine the next entry.
Value of kynurenine production reported for the compound CC1(C)CC[C@]2(C(=O)O)[C@H](O)C[C@]3(C)C(=CC[C@@H]4[C@@]5(C)CC[C@H](O[C@@H]6O[C@H](CO)[C@@H](O)[C@H](O)[C@H]6O)C(C)(C)[C@@H]5CC[C@]43C)[C@@H]2C1 [Ecliptasaponin A] (compound dose: 10 uM) is 0.88

###

# kynurenine production annotations
System: MDA-MB-231
assay details: kynurenine production, fold change vs DMSO IFNg/TNF control; higher = more kynurenine produced (less inhibition)
experimental parameters: pre-treatment time: 18 h then 24 h IFNg/TNF
Lab note: write the figure by itself, no unit.

Some compounds with known kynurenine production results, for comparison:
C=C1C(=O)[C@@]23[C@@H]4OC5O[C@@]2(O)[C@@H](O)[C@@H]2C(C)(C)CC[C@@H](O)[C@]52[C@@H]3CC[C@@H]14 [Ponicidin] (compound dose: 10 uM): 0.404
CC(=O)O[C@@H]1C[C@@]23C[C@@]24CC[C@H](O[C@@H]2OC[C@H](O)[C@H](O)[C@H]2O)C(C)(C)[C@@H]4CC[C@H]3[C@]2(C)[C@@H](O)[C@]34O[C@H](C[C@@H](C)[C@@H]3[C@@]12C)[C@@H](C(C)(C)O)O4 [Cimiracemoside D] (compound dose: 10 uM): 1.16

Could you now consider this next compound?
Memo: CC(=O)O[C@]12C[C@H](C)[C@H](OC(=O)/C=C/c3ccccc3)[C@@H]1/C=C(/CO)CC[C@H]1[C@@H](/C=C(\C)C2=O)C1(C)C [Euphorbia factor L22] (compound dose: 10 uM) , reported kynurenine production: 0.964

###

System: MDA-MB-231
assay details: cell viability relative to vehicle unstimulated control (fraction); higher = more viable cells
experimental parameters: pre-treatment time: 18 h then 24 h IFNg/TNF
value kind: cell viability
Respond with the number and no other words.

C=C(C)[C@@H]1CC[C@]2(C(=O)O[C@@H]3O[C@H](CO[C@@H]4O[C@H](CO)[C@@H](O[C@@H]5O[C@@H](C)[C@H](O)[C@@H](O)[C@H]5O)[C@H](O)[C@H]4O)[C@@H](O)[C@H](O)[C@H]3O)CC[C@]3(C)[C@H](CC[C@@H]4[C@@]5(C)CC[C@H](O[C@@H]6OC[C@H](O)[C@H](O)[C@H]6O[C@@H]6O[C@@H](C)[C@H](O)[C@@H](O)[C@H]6O)[C@@](C)(CO)[C@@H]5CC[C@]43C)[C@@H]12 [Pulchinenoside C] (compound dose: 10 uM): 0.997

Let's switch to this compound now.
Entry CC(=O)O[C@H]1/C(CO)=C\C[C@H]2[C@@H](/C=C(/C)C(=O)[C@@]3(OC(C)=O)C[C@H](C)[C@H](OC(=O)c4ccccc4)[C@H]13)C2(C)C [Euphorbia factor L24] (compound dose: 10 uM) : cell viability on MDA-MB-231 = 1.09
